pIC50: −log10 of the molar value.
# pIC50 per entry for Kallikrein 7 (Homo sapiens, UniProt P49862)

MOLECULE: N=C(N)c1cccc(CC(NS(=O)(=O)c2ccccc2)c2nc3ccccc3s2)c1 (racemic) [1 (racemic mixture, batch 1)]
pIC50: < 5.00

Problem: Record lookup: for Kallikrein 7 (Homo sapiens, UniProt P49862), what pIC50 belongs to N=C(N)c1cccc(CC(NS(=O)(=O)c2cccc(-c3ccc(Cl)cc3Cl)c2)c2nc3ccccc3s2)c1 (racemic) [3 (racemic)] ?
Solution: < 5.00

Problem: Short answer please: pIC50, Kallikrein 7 (Homo sapiens, UniProt P49862), entry N=C(N)c1cccc(C[C@H](NS(=O)(=O)c2ccccc2)c2nnco2)c1 (single isomer, unassigned) [Compound 2 (enantiomer 1, batch 1)]
Solution: < 5.00

Problem: Any idea what pIC50 came out for COc1ccc2nc(C(Cc3cccc(C(=N)N)c3)NS(=O)(=O)c3ccccc3)sc2c1 (stereo not shown) [Compound 11] on Kallikrein 7 (Homo sapiens, UniProt P49862)?
Solution: < 5.00

====

Molecular target: FVIIa (Homo sapiens)
Construct: Elastase, FVIIa, Fxa, FXIa
Sequence (P08709 213-466 limits assumed): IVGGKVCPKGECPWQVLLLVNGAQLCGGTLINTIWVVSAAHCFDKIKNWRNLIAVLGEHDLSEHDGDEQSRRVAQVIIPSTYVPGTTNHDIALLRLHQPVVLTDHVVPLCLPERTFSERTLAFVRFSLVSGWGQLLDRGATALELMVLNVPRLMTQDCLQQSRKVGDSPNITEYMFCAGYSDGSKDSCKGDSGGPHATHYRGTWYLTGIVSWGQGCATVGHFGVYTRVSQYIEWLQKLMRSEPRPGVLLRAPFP
Sequence (P08709 61-212 partner limits assumed): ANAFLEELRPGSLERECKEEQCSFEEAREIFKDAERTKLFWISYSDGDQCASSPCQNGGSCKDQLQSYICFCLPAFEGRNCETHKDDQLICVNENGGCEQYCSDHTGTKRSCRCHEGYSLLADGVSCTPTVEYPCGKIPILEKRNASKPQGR
Test: Non-TMPRSS2 protease panel: FVIIa
Type: biochemical
Settings: Factor VIIa; 10-dose, 3-fold from 10 μM
pIC50: −log10 of the molar value.
MEASURED PROPERTY: pIC50

Problem: Entry COc1ccc2nc(C(Cc3cccc(C(=N)N)c3)NS(=O)(=O)c3ccccc3)sc2c1 (stereo not shown) [Compound 11] : reported pIC50 = ?
Solution: < 5.00

====

Target: Tryptase g1 (Homo sapiens, UniProt Q9NRR2)
Sequence (Q9NRR2 20-321): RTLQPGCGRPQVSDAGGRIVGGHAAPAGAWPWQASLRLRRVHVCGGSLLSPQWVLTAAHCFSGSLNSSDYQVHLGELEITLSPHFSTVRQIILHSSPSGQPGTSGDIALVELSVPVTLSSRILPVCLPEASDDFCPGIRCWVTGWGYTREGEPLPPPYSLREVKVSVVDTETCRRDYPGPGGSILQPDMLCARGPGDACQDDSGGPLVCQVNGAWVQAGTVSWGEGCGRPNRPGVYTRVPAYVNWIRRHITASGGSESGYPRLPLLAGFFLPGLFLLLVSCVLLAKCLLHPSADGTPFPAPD
pIC50: −log10 of the molar value.
MEASURED PROPERTY: pIC50

MOLECULE: N=C(N)c1cccc(C[C@H](NS(=O)(=O)c2ccccc2)c2nnco2)c1 (single isomer, unassigned) [Compound 2 (enantiomer 1, batch 1)]
TEST VALUE: < 5.00
--
MOLECULE: COc1ccc2nc(C(Cc3cccc(C(=N)N)c3)NS(=O)(=O)c3ccccc3)sc2c1 (stereo not shown) [Compound 11]
TEST VALUE: < 5.00

Problem: Can you look up pIC50 on Tryptase g1 (Homo sapiens, UniProt Q9NRR2) for N=C(N)c1cccc(CC(NS(=O)(=O)c2ccccc2)c2nc3ccccc3s2)c1 (racemic) [1 (racemic mixture, batch 1)] ?
Solution: < 5.00

Problem: Requested read-out pIC50, target or system Tryptase g1 (Homo sapiens, UniProt Q9NRR2), entry N=C(N)c1cccc(CC(NS(=O)(=O)c2cccc(-c3ccc(Cl)cc3Cl)c2)c2nc3ccccc3s2)c1 (racemic) [3 (racemic)]
Solution: > 5.00

====

Recorded IC50 values (MMP 14 (Homo sapiens)) are given below.

These recorded examples may help you get a feel for the data.
COMPOUND: N=C(N)c1cccc(C[C@H](NS(=O)(=O)c2ccccc2)c2nnco2)c1 (single isomer, unassigned) [Compound 2 (enantiomer 1, batch 1)]
TARGET DESC: MMP 14 (Homo sapiens)
IC50: > 10 µM

COMPOUND: COc1ccc2nc(C(Cc3cccc(C(=N)N)c3)NS(=O)(=O)c3ccccc3)sc2c1 (stereo not shown) [Compound 11]
TARGET DESC: MMP 14 (Homo sapiens)
IC50: > 10 µM

COMPOUND: N=C(N)c1cccc(CC(NS(=O)(=O)c2ccccc2)c2nc3ccccc3s2)c1 (racemic) [1 (racemic mixture, batch 1)]
TARGET DESC: MMP 14 (Homo sapiens)
IC50: > 10 µM

Problem: Suppose we examine the compound N=C(N)c1cccc(CC(NS(=O)(=O)c2cccc(-c3ccc(Cl)cc3Cl)c2)c2nc3ccccc3s2)c1 (racemic) [3 (racemic)] ; what IC50 value has been reported?
Solution: < 10 µM

====

The entries below come with measured IC50 values attached.
Target chain: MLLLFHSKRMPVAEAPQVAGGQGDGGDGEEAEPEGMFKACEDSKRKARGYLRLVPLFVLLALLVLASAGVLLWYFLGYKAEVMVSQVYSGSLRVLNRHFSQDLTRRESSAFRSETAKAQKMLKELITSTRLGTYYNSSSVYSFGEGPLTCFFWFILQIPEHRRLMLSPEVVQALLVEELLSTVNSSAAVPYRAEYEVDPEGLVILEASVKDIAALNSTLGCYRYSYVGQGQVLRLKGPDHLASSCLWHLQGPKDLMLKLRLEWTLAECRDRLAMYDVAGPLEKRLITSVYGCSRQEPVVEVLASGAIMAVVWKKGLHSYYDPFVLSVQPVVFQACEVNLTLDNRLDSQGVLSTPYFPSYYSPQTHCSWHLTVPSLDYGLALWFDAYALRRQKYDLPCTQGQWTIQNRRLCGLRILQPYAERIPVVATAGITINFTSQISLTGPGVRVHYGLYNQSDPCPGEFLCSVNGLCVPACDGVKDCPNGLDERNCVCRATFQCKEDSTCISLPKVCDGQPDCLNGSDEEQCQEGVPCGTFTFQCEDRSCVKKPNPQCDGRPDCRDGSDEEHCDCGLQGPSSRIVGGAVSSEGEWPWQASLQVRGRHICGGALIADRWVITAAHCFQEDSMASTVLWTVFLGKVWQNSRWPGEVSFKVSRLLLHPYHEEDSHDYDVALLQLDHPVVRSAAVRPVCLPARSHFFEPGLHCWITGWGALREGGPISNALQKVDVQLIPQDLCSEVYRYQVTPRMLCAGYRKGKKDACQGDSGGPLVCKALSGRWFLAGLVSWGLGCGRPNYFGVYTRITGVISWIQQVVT

MOLECULE: N=C(N)c1cccc(C[C@H](NS(=O)(=O)c2ccccc2)c2nnco2)c1 (single isomer, unassigned) [Compound 2 (enantiomer 1, batch 1)]
MEASURED PROPERTY: IC50
TEST VALUE: > 10 µM

Problem: Record request: IC50 value, item N=C(N)c1cccc(CC(NS(=O)(=O)c2cccc(-c3ccc(Cl)cc3Cl)c2)c2nc3ccccc3s2)c1 (racemic) [3 (racemic)]
Solution: > 10 µM

Problem: Given N=C(N)c1cccc(CC(NS(=O)(=O)c2ccccc2)c2nc3ccccc3s2)c1 (racemic) [1 (racemic mixture, batch 1)] , state its recorded IC50.
Solution: > 10 µM

Problem: I have this molecule here, COc1ccc2nc(C(Cc3cccc(C(=N)N)c3)NS(=O)(=O)c3ccccc3)sc2c1 (stereo not shown) [Compound 11] , and I need its recorded IC50.
Solution: < 10 µM
